Source listed as PubChem BioAssay (NCI).

Catalogue of compounds with associated GI50
System: SF-539 CNS
run.description: NCI tumour cell line growth inhibition, 48 h

Q: GET /values?readout=GI50&item= `COc1cnc2c(c1)C(=O)c1c-2n(CCCN2CCC(O)CC2)c(=O)c2cc(Cl)ccc12`
A: 0.433 µM

Q: GET /values?readout=GI50&item= NC(CSSCC(N)C(=O)O)C(=O)O (stereo not drawn)
A: > 100 µM

Q: GET /values?readout=GI50&item= `O=C1CC/C(=C/COc2cc(=O)oc3ccccc23)O1`
A: 6.01 µM

----------
System: COLO 205 colon
run.description: NCI tumour cell line growth inhibition, 48 h
property.label: TGI

# count of solved cases: 2
Q: GET /values?readout=TGI&item= CC1(C)OC2OC(C(COS(=O)(=O)C(F)(F)F)N=[N+]=[N-])C(OC(=O)c3ccccc3)C2O1 (stereo not drawn)
A: > 100 µM

Q: GET /values?readout=TGI&item= `N/C1=C/C(=O)NC(=O)c2c(c3ccccc3oc2=O)C1`
A: > 100 µM

More entries:
Q: GET /values?readout=TGI&item= `COc1nc2ccc(COc3ccc(C(=O)O)cc3)cc2nc1OC`
A: > 100 µM
